Reference for the values: paper PMC11270571

TESTED ON: human AChE (Homo sapiens)
Sequence (P22303 32-614): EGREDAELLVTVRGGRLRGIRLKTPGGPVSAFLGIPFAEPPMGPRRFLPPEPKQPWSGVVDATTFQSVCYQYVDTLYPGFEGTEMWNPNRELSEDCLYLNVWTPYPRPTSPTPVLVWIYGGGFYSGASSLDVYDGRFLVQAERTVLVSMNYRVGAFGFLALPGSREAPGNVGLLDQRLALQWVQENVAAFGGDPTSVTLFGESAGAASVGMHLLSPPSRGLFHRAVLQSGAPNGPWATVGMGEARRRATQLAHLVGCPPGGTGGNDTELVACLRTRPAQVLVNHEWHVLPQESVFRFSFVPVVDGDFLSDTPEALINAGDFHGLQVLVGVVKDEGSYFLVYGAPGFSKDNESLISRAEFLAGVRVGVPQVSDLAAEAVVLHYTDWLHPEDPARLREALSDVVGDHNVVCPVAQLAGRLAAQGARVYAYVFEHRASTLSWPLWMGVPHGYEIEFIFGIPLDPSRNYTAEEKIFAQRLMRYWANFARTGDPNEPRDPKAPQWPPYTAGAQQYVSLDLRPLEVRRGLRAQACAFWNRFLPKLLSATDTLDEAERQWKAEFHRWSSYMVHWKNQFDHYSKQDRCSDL
ASSAY EXPLANATION: AChE inhibition, modified Ellman spectrophotometric method
Type: biochemical
RUN PARAMETERS: read-out: human AChE inhibition %
OBSERVATION TYPE: inhibition at 1 µM (%)
Please respond with the number in % and leave the unit unwritten.

Solved entries (count: 3):
COMPOUND: Clc1cccc(N2N=C(c3ccsc3)CC2c2ccc(N3CCOCC3)cc2)c1 (stereo not shown)
UNIT OF MEASUREMENT: %
RECORDED NUMBER: 72

COMPOUND: Clc1ccc(N2N=C(c3ccsc3)CC2c2ccc(N3CCOCC3)cc2)cc1 (stereo not shown)
UNIT OF MEASUREMENT: %
RECORDED NUMBER: 79.5

COMPOUND: c1ccc(N2N=C(c3ccsc3)CC2c2ccc(N3CCOCC3)cc2)cc1 (stereo not shown)
UNIT OF MEASUREMENT: %
RECORDED NUMBER: 82.5

Q. Look at this compound and give its reported inhibition at 1 µM. O=[N+]([O-])c1cccc(N2N=C(c3ccsc3)CC2c2ccc(N3CCOCC3)cc2)c1 (stereo not shown)
A. 75.4

###

TESTED ON: human AChE (Homo sapiens)
ASSAY EXPLANATION: AChE inhibition, modified Ellman spectrophotometric method
Assay type: biochemical
RUN PARAMETERS: read-out: human AChE inhibition %
OBSERVATION TYPE: inhibition at 0.01 µM
Output should be the measured figure followed by the unit it is expressed in.

Past entries and their recorded results:
COMPOUND: Clc1cccc(N2N=C(c3ccsc3)CC2c2ccc(N3CCOCC3)cc2)c1 (stereo not shown) [Compound 2j]
inhibition at 0.01 µM: 36.2%
//
COMPOUND: Clc1ccc(N2N=C(c3ccsc3)CC2c2ccc(N3CCOCC3)cc2)cc1 (stereo not shown) [Compound 2g]
inhibition at 0.01 µM: 23.1%
//
COMPOUND: c1ccc(N2N=C(c3ccsc3)CC2c2ccc(N3CCOCC3)cc2)cc1 (stereo not shown) [Compound 2a]
inhibition at 0.01 µM: 20.3%

Alright, here's another compound for you.
Q. Which inhibition at 0.01 µM is listed for O=[N+]([O-])c1cccc(N2N=C(c3ccsc3)CC2c2ccc(N3CCOCC3)cc2)c1 (stereo not shown) [Compound 2l] ?
A. 42.2%

###

TESTED ON: human AChE (Homo sapiens)
ASSAY EXPLANATION: AChE inhibition, modified Ellman spectrophotometric method
Type: biochemical
RUN PARAMETERS: read-out: human AChE inhibition %
OBSERVATION TYPE: inhibition at 0.001 µM
Note to self: number, then unit, no commentary.

Please review the entries below; each comes with its answer.
COMPOUND: Clc1ccc(N2N=C(c3ccsc3)CC2c2ccc(N3CCOCC3)cc2)cc1 (stereo not shown)
inhibition at 0.001 µM: 15.6%
--
COMPOUND: Clc1cccc(N2N=C(c3ccsc3)CC2c2ccc(N3CCOCC3)cc2)c1 (stereo not shown)
inhibition at 0.001 µM: 19%
--
COMPOUND: c1ccc(N2N=C(c3ccsc3)CC2c2ccc(N3CCOCC3)cc2)cc1 (stereo not shown)
inhibition at 0.001 µM: 14.7%

Read the next record carefully.
Q. // query inhibition at 0.001 µM value for entry O=[N+]([O-])c1cccc(N2N=C(c3ccsc3)CC2c2ccc(N3CCOCC3)cc2)c1 (stereo not shown)
A. 19.3%
